Below is a list of entries, each paired with its recorded ELISA hCD19 (ratio FMC63) value.
# assayed.target: T1, human CD19 protein with a biotinylated AviTag (Acrobiosystems) (human, UniProt P15391 20-291, biotinylated AviTag)
# T1 construct: Captured on streptavidin-coated microplate wells; also called biotinylated-AviTag-CD19; hCD19; not shown: AviTag
# T1 sequence (looked up): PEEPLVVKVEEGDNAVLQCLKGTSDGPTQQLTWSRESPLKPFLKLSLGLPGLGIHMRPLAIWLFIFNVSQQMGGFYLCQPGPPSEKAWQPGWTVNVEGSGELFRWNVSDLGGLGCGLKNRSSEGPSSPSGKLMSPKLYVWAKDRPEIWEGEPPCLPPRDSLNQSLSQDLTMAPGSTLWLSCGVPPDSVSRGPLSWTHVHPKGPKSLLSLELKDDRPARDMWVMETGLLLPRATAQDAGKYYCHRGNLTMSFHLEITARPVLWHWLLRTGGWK
# protocol.description: phage ELISA, biotinylated AviTag CD19 on streptavidin wells; signal ratio to FMC63 standard

[
  {
    "binder": "scFv 35 (scFv, Canine scFv (VL-linker-VH); also called P4-08) scFv: SSVLTQPPSVSVSLGQTATISCSGESLSEYYAQWFQQKAGQAPVLVIYKDTERASGIPDRFSGSSSGNTHTLTISGARAEDEADYYCESAVNSDGIVFGGGTHLTVLGGGSSRSSSSGGGGSGGGGEVQLVESGGDLVKPAGSLRLSCVTSGFTFSSYAMSWVRQAPGKGLQWVGSINSGGSTTSYADAVKGRFTISRDNAKNTVYLQMNSLRAEDTAVYYCARWWDFEYWGQGTLVTVSSESPSPPNLTSGQAGQHHHHHHGAYPYDVPDYAS",
    "ELISA hCD19 (ratio FMC63)": "0.23 ratio to FMC63"
  },
  {
    "binder": "scFv 11 (scFv, Canine scFv (VL-linker-VH); also called P3-57) scFv: QPVLTQPPSVSGALGQTVTISCSGSHTNIGSGFDVQWYQQLPGKSPQTLVYANINRPSGVPARFSGSKSGSTATLTITGVQAEDEADYYCQSYDDNFDYVFGSGTQLTVLGGGSSRSSSSGGGGSGGGGEVQLVESGGDLVKPGGSLRLSCVASGFTFSDYSMSWVRQSPGKGLQWVAAIMTSGSTYYADAVKGRFTISRDNAKNTLYLQMDSLRAEDTAVYYCAHDYWFDFWGQGTLVTVSSASTTAPSVTSGQAGQHHHHHHGAYPYDVPDYAS",
    "ELISA hCD19 (ratio FMC63)": "0.31 ratio to FMC63"
  },
  {
    "binder": "scFv 10 (scFv, Canine scFv (VL-linker-VH); also called P3-01) scFv: QAVLNQPASVSGALGQTVTISCSGSHTNIGSGFDVQWYQQLPGKSPQTIIYANINRPSGVPARFSGSKSGSTATLTITGVQAEDEADYHCQSFDDDLDGPVFGGGTHLTVLGGGSSRSSSSGGGGSGGGGEVQLVQSGGDLVKPGGSLKISCVASGLTFNRNYMTWIRQAPGKGLQWVSEINPDGSTTSYTDAVRGRFTISRDNAKNTLYLQMNSMRDEDTAVYYCARSSWGSFDYWGQGTLVTVSSASTTAPSVTSGQAGQHHHHHHGAYPYDVPDYAS",
    "ELISA hCD19 (ratio FMC63)": "0.77 ratio to FMC63"
  },
  {
    "binder": "scFv 21 (scFv, Canine scFv (VL-linker-VH); also called P3-04; P3-34) scFv: QPVLTQPPSVSVSLGQTATISCSGESLSKYYAQWFQQKAGQAPVLVIYKDTERPSGIPDRFSGSSSGNTHTLTISGARAEDEADYYCESAVSSDTAVFGSGTQLTVLGGGSSRSSSSGGGGSGGGGEVQLVESGGDMVKPGGSLRLSCVASGFTFSSFWMYWVRQAPGKGLQWVGGINSGGSITSYADAVKGRFTISRDNARNTLYLQMDSLRDEDTAVYYCAKPDIYGSFDHWGQGTLVTVSSESPSPPNLTSGQAGQHHHHHHGAYPYDVPDYAS",
    "ELISA hCD19 (ratio FMC63)": "0.71 ratio to FMC63"
  },
  {
    "binder": "scFv 40 (scFv, Canine scFv (VL-linker-VH); also called P3-59B) scFv: QSVLTQPPSVSGSLGQKVTISCTGSSSSVGTHYVGWYQIPPGIGPRTVIYNNDYRPSGVPDRFSGSKSGNSATLTISGLQAEDEADYYCSSWDDSLGAYVLGSGTQLTILGGGSSRSSSSGGGGSGGGGELTLQESGPGLVKPSQTLSLTCAVSGGSVIRGYYWTWIRQRPGRGLEWMGYWAGSTDYNPAFQGRIFITAGTAKNQFSLEMTSMTTDDTAIYYCVGSLRGGWLFDNWGQGTLVTVSSASTTAPSVTSGQAGQHHHHHHGAYPYDVPDYAS",
    "ELISA hCD19 (ratio FMC63)": "0.14 ratio to FMC63"
  }
]
